target: MMP-8 (Homo sapiens)
Sequence (P22894 100-262 limits assumed): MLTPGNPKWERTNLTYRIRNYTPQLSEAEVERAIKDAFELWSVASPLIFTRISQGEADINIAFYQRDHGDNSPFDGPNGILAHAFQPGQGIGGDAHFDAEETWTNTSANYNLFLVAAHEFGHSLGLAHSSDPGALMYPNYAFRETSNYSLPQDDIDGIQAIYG
property: log10(IC50) (log10 of the value in µM)
Scale: log10; quantity: IC50; unit before log: µM

Check out these entries, answers already filled in.
O=C(Nc1ccc(S(=O)(=O)NC(P(=O)(O)O)P(=O)(O)O)cc1)c1ccc2ccccc2c1    1.22
O=C(Nc1ccc(S(=O)(=O)NC(P(=O)(O)O)P(=O)(O)O)cc1)c1ccccc1    0.27

Below is a list of compounds. For each, state its recorded log10(IC50).
1. O=C(Nc1ccc(S(=O)(=O)NC(P(=O)(O)O)P(=O)(O)O)cc1)c1cccc(Br)c1
2. O=C(Nc1ccccc1)Nc1ccc(S(=O)(=O)NC(P(=O)(O)O)P(=O)(O)O)cc1
3. O=P(O)(O)C(NS(=O)(=O)c1ccc(-c2ccccc2)cc1)P(=O)(O)O
4. O=C(Nc1ccc(S(=O)(=O)NC(P(=O)(O)O)P(=O)(O)O)cc1)c1ccc(Br)cc1

1: 1.23; 2: 1.68; 3: -0.40; 4: -0.18

----------
target: MMP-13 (Homo sapiens, UniProt P45452)
One threshold, 10 µM, splits the recorded IC50 values: lower ones are met, equal or higher ones are not met.

O=C(Nc1ccccc1)Nc1ccc(S(=O)(=O)NC(P(=O)(O)O)P(=O)(O)O)cc1    not met

In plain terms, does O=C1c2ccccc2C(=O)N1c1ccc(S(=O)(=O)NC(P(=O)(O)O)P(=O)(O)O)cc1 come in under 10 µM for IC50? not met

Please determine if O=C(Nc1ccc(S(=O)(=O)NC(P(=O)(O)O)P(=O)(O)O)cc1)c1cccc2ccccc12 is below 10 µM in terms of IC50. not met

Here's an entry: O=P(O)(O)C(NS(=O)(=O)c1ccc(-c2ccccc2)cc1)P(=O)(O)O . Is its IC50 below 10 µM? met

IC50 under 10 µM? Item: O=P(O)(O)C(NS(=O)(=O)c1ccc2ccccc2c1)P(=O)(O)O met

----------
biological target: MMP-2 (Homo sapiens, UniProt P08253); construct: gene MMP2; assay: fluorogenic peptide substrate assay; assay type: biochemical; settings: OmniMMP 2.5 µM or OmniMMP RED 1 µM, pH 7.5, 1 mM CaCl2, 1 µM ZnCl2, 15 min preincubation, 37 °C
Sequence (P08253 110-446 limits assumed): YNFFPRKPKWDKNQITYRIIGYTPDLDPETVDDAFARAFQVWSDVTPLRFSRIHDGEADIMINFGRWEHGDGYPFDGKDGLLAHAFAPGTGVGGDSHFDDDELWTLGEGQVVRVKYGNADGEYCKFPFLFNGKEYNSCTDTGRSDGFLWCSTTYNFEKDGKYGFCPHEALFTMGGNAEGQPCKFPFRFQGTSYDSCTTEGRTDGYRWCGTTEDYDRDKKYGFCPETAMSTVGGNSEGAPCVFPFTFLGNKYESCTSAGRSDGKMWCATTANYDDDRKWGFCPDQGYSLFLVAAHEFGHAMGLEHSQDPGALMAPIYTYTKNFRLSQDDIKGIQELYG
property: IC50
Put your answer as a value accompanied by its unit after it.

Item: O=P(O)(O)C(NS(=O)(=O)c1ccc(-c2ccccc2)cc1)P(=O)(O)O Test system: MMP-2 (Homo sapiens, UniProt P08253) Read-out: IC50 Value: ? 140 nM

----------
target: MMP-13 (Homo sapiens)
So I've got a bunch of compounds here, and I need their pIC50 values.
Numbers only, as −log10 of the molar value.

Quick request: pIC50 for each listed item, please.
1. O=P(O)(O)C(NS(=O)(=O)c1cccc2ccccc12)P(=O)(O)O
2. O=C(Nc1ccc(S(=O)(=O)NC(P(=O)(O)O)P(=O)(O)O)cc1)c1ccc(Br)cc1
3. O=C(Nc1ccc(S(=O)(=O)NC(P(=O)(O)O)P(=O)(O)O)cc1)c1cccc(Br)c1

[4.84, 6.85, 4.80]
